tested on: Calu-3; test: cell viability relative to DMSO; higher = less toxic; settings: 72 h; 1000 nM
Recorded cell viability for the following molecules
attribute.measured: cell viability (%)

Nc1ccc(S(=O)(=O)Nc2ccc(Cl)nn2)cc1    104
CCOC(=O)[C@H](CCc1ccccc1)N[C@@H](C)C(=O)N1Cc2cc(OC)c(OC)cc2C[C@H]1C(=O)O    111
C=CCn1c(=O)c2cnc(Nc3ccc(N4CCN(C)CC4)cc3)nc2n1-c1cccc(C(C)(C)O)n1    50.9
CNCCc1ccc(O)c(O)c1 [deoxyepinephrine]    91.6
Cc1c(C(=O)N2CCOc3ccc(-c4ccc(N)nc4)cc3C2)ccc(S(C)(=O)=O)c1F    68.5

* * *

Recorded cell viability for the following compounds
tested on: HepG2; experiment: cell viability relative to DMSO; higher = less toxic; conditions: 72 h; 100 nM
attribute.measured: cell viability (%)

CC[C@H]1OC(=O)[C@@](C)(F)C(=O)[C@H](C)[C@@H](O[C@@H]2O[C@H](C)C[C@H](N(C)C)[C@H]2O)[C@](C)(OC)C[C@@H](C)C(=O)[C@H](C)[C@H]2N(CCCCn3cc(-c4cccc(N)c4)nn3)C(=O)O[C@]12C    87.4
C1=N/C2=N/c3ccc(OCCN4CCCC4)c(c3)COC/C=C/COCc3cccc(c3)C(=C1)N2    89.4
CC(=O)N[C@@H](CC(=O)O)C(=O)N[C@@H](CCC(=O)O)C(=O)O    91.5

* * *

test system: Calu-3; test: cell viability relative to DMSO; higher = less toxic; conditions: 72 h; 10000 nM
Hi! Could you tag entries with cell viability below 90% as True, and those at or above as False? Much appreciated.

Fc1ccccc1-c1nc2ccn(Cc3ccc(-c4ccc(C(F)(F)F)cc4C(F)(F)F)nn3)cc-2n1 [tegobuvir]    False
CN1[C@@H]2CC[C@H]1C[C@@H](OC1c3ccccc3CCc3ccccc31)C2 [deptropine]    True
Clc1ccc(C(c2ccc(Cl)cc2)C(Cl)(Cl)Cl)cc1 [4,4'-DDT]    False
COc1cc(O)c2c(c1)C(=O)c1cc(C)cc(O)c1C2=O [rheochrysidin]    False
C1=N/C2=N/c3ccc(OCCN4CCCC4)c(c3)COC/C=C/COCc3cccc(c3)C(=C1)N2 [pacritinib]    True
CCCCC[C@H](O)/C=C/[C@H]1[C@H](O)CC(=O)[C@@H]1C/C=C\CCCC(=O)O [dinoprostone]    False

* * *

Recorded cell viability for the following molecules
test system: Caco-2; assay: cell viability relative to DMSO; higher = less toxic; conditions: 72 h; 100 nM
attribute.measured: cell viability (%)

Cn1cc(C(=O)C(=O)N[C@H]2CN3CCC2CC3)c2ccccc21    104
C[C@]12CC[C@H]3[C@@H](CCC4=CC(=O)CC[C@@]43C)[C@@H]1CC[C@@H]2C(=O)CO    102
CNC(=O)c1c(F)cccc1Nc1nc(Nc2cc3c(cc2OC)CCN3C(=O)CN(C)C)nc2[nH]ccc12    92.3
CC(C)N[C@H]1CCn2c(=O)[nH]c3cccc(c32)[C@@H]1O    100
Cc1cc(O)c2c(c1)C(=O)c1cccc(O)c1C2=O    92
Cn1c2c(c3ccccc31)CCNCC2    102
Cc1cc([C@@H](C)Nc2ccccc2C(=O)O)c2nc(N3CCOCC3)cc(=O)n2c1    90
CN(C)CCNc1nc2cc(O)ccc2c2c1C(=O)c1ccccc1-2    102
Cc1ccc(C(=O)N(CCCN)[C@@H](c2nc3cc(Cl)ccc3c(=O)n2Cc2ccccc2)C(C)C)cc1    68.8
OCCN1CCN(CC/C=C2/c3ccccc3Sc3ccc(C(F)(F)F)cc32)CC1    95.2

* * *

system: Calu-3; test: cell viability relative to DMSO; higher = less toxic; details: 72 h; 10 nM
attribute.measured: cell viability (%)

NC(=O)Nc1cc(-c2cccc(F)c2)sc1C(=O)N[C@H]1CCCNC1    96.4
C/C=C1/[C@H](O[C@@H]2O[C@H](CO)[C@@H](O)[C@H](O)[C@H]2O)OC=C(C(=O)OC)[C@H]1CC(=O)OCCc1ccc(O)c(O)c1    98.8
O=C(O)[C@H]1CN(C/C=C/P(=O)(O)O)CCN1    94.8
c1ccc2[nH]c(-c3cscn3)nc2c1    102
Cc1c(N)nc([C@H](CC(N)=O)NC[C@H](N)C(N)=O)nc1C(=O)N[C@H](C(=O)N[C@H](C)[C@@H](O)[C@H](C)C(=O)N[C@H](C(=O)NCCc1nc(-c2nc(C(=O)NCCC[S+](C)C)cs2)cs1)[C@@H](C)O)[C@@H](OC1OC(CO)C(O)C(O)C1OC1OC(CO)C(O)C(OC(N)=O)C1O)c1cnc[nH]1 (stereo not given in full)    91.8

* * *

system: U2OS; test: drug sensitivity score (DSS) for viability; higher = more toxic; extreme values may be limits of the assay; details: 72 h
Recorded drug sensitivity score for the following molecules
attribute.measured: drug sensitivity score

O=C(O)C[C@H]1CC[C@H](c2ccc(-c3ccc(Nc4ccc(C(F)(F)F)nc4)cn3)cc2)CC1    0
Cc1[nH]c2ccc(F)cc2c1-c1nc2c3cccnc3c3ncccc3c2[nH]1    7
C[C@@H](NC(=O)c1ncnc(N)c1Cl)c1ncc(C(=O)Nc2cc(C(F)(F)F)c(Cl)cn2)s1    0
Cc1c(C(=O)N2CCOc3ccc(-c4ccc(N)nc4)cc3C2)ccc(S(C)(=O)=O)c1F    2.8
CNCCCN1c2ccccc2CCc2ccccc21    0
C[C@@H]1CN(Cc2ncccn2)C[C@H]1c1nc2c(cnn2C2CCOCC2)c(=O)[nH]1    0
COc1ccc(CCN2CCN(CCCc3ccccc3)CC2)cc1OC    0
CN[C@@H]1[C@@H](O)[C@@H](O[C@@H]2[C@@H](O)[C@H](O[C@H]3O[C@H](CN)[C@@H](O)[C@H](O)[C@H]3O)[C@@H](N)C[C@H]2NC(=O)[C@@H](O)CN)OC[C@]1(C)O    0
CNC(=O)CN(CCN(CCN(CC(=O)[O-])CC(=O)NC)CC(=O)[O-])CC(=O)[O-].[Gd+3] [gadodiamide]    0
O=C1c2ccccc2C(Cc2ccncc2)(Cc2ccncc2)c2ccccc21    0
CNC(=O)N(C)N=O    0
Clc1ccc(-c2nc3sccn3c2/C=N/OCc2ccc(Cl)c(Cl)c2)cc1    0
CNCCc1ccc(O)c(O)c1 [deoxyepinephrine]    0
NC(=O)Cc1cccc(C(=O)c2ccccc2)c1N    0
CC1(C)C[C@@H]1C(=O)N/C(=C\CCCCSC[C@H](N)C(=O)O)C(=O)O [Cilastatin Sodium]    0
Oc1ccc2ccccc2c1Cc1c(O)ccc2ccccc12    0
CCn1c(=O)c2c(nc(/C=C/c3ccc(OC)c(OC)c3)n2C)n(CC)c1=O    0
CCOP(=S)(OCC)Oc1ccc2c(C)c(Cl)c(=O)oc2c1    0
CCn1cc(C(=O)O)c(=O)c2cc3c(cc21)OCO3    0
CC[C@H](c1ccc(O)cc1)[C@@H](CC)c1ccc(O)cc1    0
COc1cccc(N(C)C(=S)Oc2ccc3c(c2)CCCC3)n1 [liranaftate]    0
Cc1cc(C)c(NC(=O)N(Cc2ccc3c(c2)Cc2ccccc2-3)C2CCCCCC2)c(C)c1    1
NS(=O)(=O)c1cc(C2(O)NC(=O)c3ccccc32)ccc1Cl (stereo not drawn)    0
O=C(O)c1cccnc1C(=O)O    0
NC(=O)Nc1cc(-c2cccc(F)c2)sc1C(=O)N[C@H]1CCCNC1    17.4
CC(C)(C)NC[C@H](O)COc1nsnc1N1CCOCC1    0
O=C1OC(OC(=O)c2cccnc2Nc2cccc(C(F)(F)F)c2)c2ccccc21 (stereo not drawn) [talniflumate]    0
Cc1ccc(C(=O)N(CCCN)[C@@H](c2nc3cc(Cl)ccc3c(=O)n2Cc2ccccc2)C(C)C)cc1    19.4

* * *

Recorded cell viability for the following molecules
test system: U2OS; experiment: cell viability relative to DMSO; higher = less toxic; conditions: 72 h; 1 nM
attribute.measured: cell viability (%)

Cc1[nH]c2ccccc2c1CCNCc1ccc(/C=C/C(=O)NO)cc1    99.2
O=C(O)/C=C/c1ccc(Cn2ccnc2)cc1    97.8
Nc1ccn([C@H]2CC[C@@H](CO)O2)c(=O)n1    101
O=C(O)C[C@H]1CC[C@H](c2ccc(-c3ccc(Nc4ccc(C(F)(F)F)nc4)cn3)cc2)CC1    95.7
Nc1nccc(Oc2ccc(NC(=O)c3c[nH]cc(-c4ccc(F)cc4)c3=O)cc2F)c1Cl    96.2
COc1cccc(N(C)C(=S)Oc2ccc3c(c2)CCCC3)n1 [liranaftate]    97.2
C=CC(=O)Nc1cccc(Oc2nc(Nc3ccc(N4CCN(C)CC4)cc3OC)ncc2Cl)c1    94.5
COc1cccc(-n2nc(C(=O)O)cc2-c2ccc(C3CCCCC3)c(Cl)c2)c1    100
